B1: ZER1 (parent)
chain: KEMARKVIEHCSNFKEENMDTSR

- Variants of: B1
- Assay Comment: protein stability index of a GFP-peptide fusion (GPS, HEK-293T) (PSI 1-6); higher = more stable;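 also: lentivirally expressed fusions sorted by FACS into six bins by GFP to DsRed ratio, PSI derived from sequencing read proportions per bin multiplied by bin number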
- Setup Conditions: c terminus: native
Rule: protein stability index under 3 gives Not satisfied, otherwise Satisfied.

# Variant Description, Qualitative Label
measured = [
    ("I8G", "Satisfied"),
]

In plain terms: is recorded protein stability index at least 3 for E2K ?
Satisfied

One more variant: N13E
Satisfied

One more variant: R5C
Satisfied

Values from the supplement of paper PMC10567573
